Examples of molecules with documented damage to plant, ELEIN follow.
test system: Eleusine indica (ELEIN); experiment: Post-emergence biological efficacy, ELEIN; format: in vivo; details: 250 g/ha, evaluated after 13 days, 100=total damage to plant, 0=no damage to plant
Number only, no unit.

Before answering, review these 4 worked examples.
CCOC(=O)CC(C)OC(=O)c1cc(-c2ncc(C(F)(F)F)cc2Cl)ccc1Cl (centres unmarked)    100
CCOC(=O)C[C@H](C)OC(=O)c1cc(-c2ncc(C(F)(F)F)cc2Cl)c(F)cc1Cl [Compound 2-525 (S-enantiomer)]    100
CCOC(=O)C[C@@H](C)OC(=O)c1cc(-c2ncc(C(F)(F)F)cc2Cl)c(F)cc1Cl [Compound 2-525 (R-enantiomer)]    100
CCOC(=O)C[C@H](C)OC(=O)c1cc(-c2ncc(C(F)(F)F)cc2Cl)ccc1Cl [Compound 1-525 (S-enantiomer)]    100

Read the next record carefully.
Can you look up the measured damage to plant, ELEIN of COC(=O)C[C@H](C)OC(=O)c1nc(-c2ncc(C(F)(F)F)cc2Cl)c(F)cc1Cl [Compound 11-524 (S-enantiomer)] for me?
100
